biological target: histamine H4 receptor (Homo sapiens, UniProt Q9H3N8); assay: H4 Membrane Binding Assay (3H-Histamine displacement); conditions: membranes of recombinant HEK293SFM cells, 10 nM 3H-Histamine, 1.5 hr at room temperature
endpoint: IC50 (nM)

Some solved cases for reference:
> print(dat)
                                   molecule  data.value
1  CN1CCN(c2nc(N)nc3cc(C(=O)NC(C#N)c4ccccc4)ccc23)CC1 (centres unmarked) [Example 129]         156
2  Cc1ccc(C#N)c(Oc2cccc(C(C)NC(=O)c3ccc4c(N5CCN(C)CC5)nc(N)nc4c3)c2)n1 (centres unmarked) [Example 198]          34
3  CCOC(=O)N1CCC(NC(=O)N2CCc3ccc(-c4cc(N5CCN(C)CC5)nc(N)n4)cc3C2)CC1 [Example 52]         130
4  CN1CCN(c2nc(N)nc3cc(C(=O)NCc4cccc(Oc5nccc6ccccc56)c4)ccc23)CC1 [Example 181]          16
5  CC(C)OC(=O)N1CCC(CC(=O)N2CCc3ccc(-c4cc(N5CCN(C)CC5)nc(N)n4)cc3C2)C1 (centres unmarked) [Example 119]          70

(a) CN1CCN(c2cc(-c3ccc4c(c3)CN(C(=O)CC3CCOCC3)CC4)nc(N)n2)CC1 [Example 110]
(b) CN1CCN(c2cc(-c3ccc4c(c3)CN(C(=O)NC3(C)CCCCC3)CC4)nc(N)n2)CC1 [Example 47]
(c) CN1CCN(c2cc(-c3ccc4c(c3)CN(C(=O)N3CCCC3)CC4)nc(N)n2)CC1 [Example 9]
QUERY: Ascending sort, IC50. When ranking, write the labels in the order the request describes.
RESULT: b, a, c
